Tested on: SR leukemia cell line
experiment.notes: NCI in vitro antiproliferative screen (SRB), SR
Assay type: cell-based, human
details: Homo sapiens, after 48 h
Protocol: In preliminary tests, four compounds (1B14a, 1C44, 1C45, and 1C46) were chosen by NIH-NCI for in vitro screening. See Drug discovery and development program, National Cancer Institute, Bethesda, (NCI), http://dtp.nci.nih.gov. All tetraoxanes were evaluated in the 3-cell line (lung—NCI-H460, breast—MCF7, CNS-SF-268) one dose primary anticancer assay: growth percentage after 48 hours, at 100 μM concentration of tested compound. […]
# key: entry, value: GI50

CC(=O)O[C@H]1C(=O)[C@@]2(C)[C@H]([C@H](OC(=O)c3ccccc3)[C@]3(O)C[C@H](OC(=O)[C@H](O)[C@@H](NC(=O)c4ccccc4)c4ccccc4)C(C)=C1C3(C)C)[C@]1(OC(C)=O)CO[C@@H]1C[C@@H]2O [Paclitaxel, reference compound]    0.079 µM
CC(=O)O[C@H]1CC2C(C3CC[C@H](C(C)CCC(=O)O)[C@]31C)[C@H](OC(C)=O)C[C@@H]1CC3(CC[C@]21C)OOC1(CCC(c2ccccc2)CC1)OO3 (single isomer, unassigned)    1.83 µM
CC(=O)O[C@H]1CC2C(C3CC[C@H](C(C)CCC(N)=O)[C@]31C)[C@H](OC(C)=O)C[C@@H]1CC3(CC[C@]21C)OOC1(CCC(c2ccccc2)CC1)OO3 (single isomer, unassigned)    0.29 µM

// next item, GI50 requested
### Prompt Short answer please: GI50, SR leukemia cell line, entry C[C@@H]1CC[C@H]2[C@@H](C)C(=O)O[C@@H]3O[C@@]4(C)CC[C@@H]1[C@]32OO4 [Artemisinin, reference compound]
### Response 100 µM

* * *

System: Plasmodium falciparum chloroquine-resistant strain W2
experiment.notes: microbe, parasite or virus in culture
Assay type: cell-based
details: Plasmodium falciparum, W2, 66 h, read-out: Strain W2 IC50, growth inhibition, chloroquine-resistant strain W2, 66 h incubation
In this section, each of the molecules is paired with its reported log10 of IC50.
Units before log transform: ng/mL; reported quantity: IC50; transform: log10.

Record excerpt, results attached:
CCNC(=O)CCC(C)[C@H]1CCC2C3C(C[C@H](OC(C)=O)[C@@]21C)[C@@]1(C)CCC2(C[C@H]1C[C@H]3OC(C)=O)OOC1(CCCCC1C)OO2 (stereo partly drawn) [15/1C24]    0.66
COC(=O)CNC(=O)CCC(C)[C@H]1CCC2C3C(C[C@H](OC(C)=O)[C@@]21C)[C@@]1(C)CCC2(C[C@H]1C[C@H]3OC(C)=O)OOC1(CCCCC1)OO2 (stereo partly drawn) [12/1C21]    0.87
CC(=O)O[C@H]1CC2C(C3CC[C@H](C(C)CCC(N)=O)[C@]31C)[C@H](OC(C)=O)C[C@@H]1CC3(CC[C@]21C)OOC1(CCCCC1)OO3 (stereo partly drawn) [10/1C19]    0.47
COC(=O)CCC(C)[C@H]1CCC2C3C(C[C@H](OC(C)=O)[C@@]21C)[C@@]1(C)CCC2(C[C@H]1C[C@H]3OC(C)=O)OOC1(CCC(C(C)(C)C)CC1)OO2 (single isomer, unassigned) [8k/1B09a]    1.56
CC(=O)O[C@H]1CC2C(C3CC[C@H](C(C)CCC(N)=O)[C@]31C)[C@H](OC(C)=O)C[C@@H]1CC3(CC[C@]21C)OOC1(CCCCC1C)OO3 (stereo partly drawn) [13/1C22]    0.85

### Prompt Which measured log10 of IC50 value corresponds to COC(=O)CCC(C)[C@H]1CCC2C3C(C[C@H](OC(C)=O)[C@@]21C)[C@@]1(C)CCC2(C[C@H]1C[C@H]3OC(C)=O)OOC1(CCCC1)OO2 (stereo partly drawn) [8a/1B04] ?
### Response 1.24

### Prompt Can you share its log10 of IC50? I mean this molecule: COC(=O)CCC(C)[C@H]1CCC2C3C(C[C@H](OC(C)=O)[C@@]21C)[C@@]1(C)CCC2(C[C@H]1C[C@H]3OC(C)=O)OOC1(CC(C)CCC1C(C)C)OO2 (stereo partly drawn) [8f/1B10]
### Response 1.70

Data provenance: patent US6906098B2
